Values from paper PMC10641266

TARGET_DESC: Clostridioides difficile toxin A (Clostridioides difficile, strain not …, UniProt P16154)
TEST_NAME: SPR
COND: both partners purified
Listing of recorded pKd by entry.
Scale note: pKd = -log10(concentration in M).

stdin: If you can, please state the reported pKd value of A26.8 VHH with engineered Cys4-Cys118 pair (VHH) VHH: QVKCEESGGGLVQAGGSLRLSCAASERTFSRYPVAWFRQAPGAEREFVAVISSTGTSTYYADSVKGRFTISRDNAKVTVYLQMNNLKREDTAVYFCAVNSQRTRLQDPNEYDYCGQGTQVTVSS .
stdout: 7.36

stdin: // repeat for A26.8 VHH with engineered Cys6-Cys119 disulfide linkage (VHH) VHH: QVKLECSGGGLVQAGGSLRLSCAASERTFSRYPVAWFRQAPGAEREFVAVISSTGTSTYYADSVKGRFTISRDNAKVTVYLQMNNLKREDTAVYFCAVNSQRTRLQDPNEYDYWCQGTQVTVSS and report
stdout: 7.90

stdin: // same read-out, input: A26.8 VHH with engineered Cys22-Cys88 disulfide linkage (VHH) VHH: QVKLEESGGGLVQAGGSLRLCCAASERTFSRYPVAWFRQAPGAEREFVAVISSTGTSTYYADSVKGRFTISRDNAKVTVCLQMNNLKREDTAVYFCAVNSQRTRLQDPNEYDYWGQGTQVTVSS
stdout: 7.73
